B1: KRT13 (parent)
chain: KTIEELRDKILTATIENNRVILEI

- Variants of: B1
- procedure-summary: protein stability index of a GFP-peptide fusion (GPS, HEK-293T) (PSI 1-6); higher = more stable;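 further: lentivirally expressed fusions sorted by FACS into six bins by GFP to DsRed ratio, PSI derived from sequencing read proportions per bin multiplied by bin number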
- run-conditions: c terminus: a fixed tail appended
measured-attribute: protein stability index
Lab note: jot the number down without any unit.

Illustrative cases are given below, each with its answer.
L6D: 1.92
I3T: 2.91
L22V: 2.97
R7N: 2.38

Report protein stability index, nothing else, for this variant: `K9L`
2.37

Provide protein stability index value for the following variant: `D8K`
2.66

Entry `T14V` needs its protein stability index filled in; supply it.
1.02

Please report the measured protein stability index for `T14R`
2.59

Specify reported protein stability index for the variant shown: `E4F`
3.99

Give a short answer stating reported protein stability index for `T14A` .
4.11

Check the records and state protein stability index for `T2C`
2.92

// Input: `K9T` . Output its protein stability index only.
2.35

Give recorded protein stability index. `L11P`
1.95

State, in one line, measured protein stability index of `I10D`
1.73

Look up protein stability index of `E4R` and report it.
3.26

Please give measured protein stability index of the following entry: `L6C`
3.04

For the variant `I15P` , report protein stability index.
2.17

Provide one value: measured protein stability index of `I21C`
2.42

Tell me its protein stability index given `I21D` as the entry.
2.43

Give the value of protein stability index reported for the following: `R7C`
3.68

Give me measured protein stability index, please, for this variant: `I10G`
1.69

Supply protein stability index value. Item: `I10E`
2

Just for reference, the supplement of paper PMC10567573 is where these values come from.
